I'd be grateful if you could share measured log10 of IC50 for these entries.
# Tested on: intracellular L. donovani in THP-1 macrophage host cells
# run.description: THP-1 macrophage infection assay: anti L. donovani activity
# run.parameters: Leishmania donovani, THP-1, read-out: IC50 (reduction of total number of parasites by 50%)
Plainly stated, the numbers are log10 of IC50 given in nM.

Cc1cccc(-c2ccc(C(=O)NNC(=O)Cc3nc4ccccc4n3C)nc2)c1 [Compound 17j]	2.48

Please report log10 of IC50 for every entry that follows.
1. COc1ccc(-c2ccc(C(=O)NNC(=O)Cc3nc4ccccc4n3C)nc2)cc1 [Compound 17h]
2. O=C(Cc1nc2ccccc2o1)NNC(=O)c1ccc2ccccc2n1

Reply |
2.85
4.69

Kindly give each listed record's log10 of IC50.
1. Cc1ccc(-c2ccc(C(=O)NNC(=O)Cc3nc4ccccc4n3C)nc2)cc1 [Compound 17k]
2. Cn1c(CC(=O)NNC(=O)c2ccc(-c3ccccc3Cl)cn2)nc2ccccc21 [Compound 17a]
3. Cn1c(CC(=O)NNC(=O)c2ccc(-c3cccc(Cl)c3)cn2)nc2ccccc21 [Compound 17b]

Reply |
[2.30, 3.00, 3.00]

Record log10 of IC50 for all entries; do not skip any.
1. Cn1c(CC(=O)NNC(=O)c2cccc(-c3ccccc3)n2)nc2ccccc21 [Compound 13d]
2. Cn1c(CC(=O)NNC(=O)c2ccc(-c3ccc(C#N)cc3)cn2)nc2ccccc21 [Compound 17e]

Reply |
1: 4.30; 2: 2.90

Hey, just so you know, these numbers are from paper PMC11375810.
